test system: A498 renal; test: NCI-60 one-dose screen, 48 h (100 = growth as untreated, 0 = no growth, -100 = all killed); settings: 10 µM unless noted
About 83,000 compounds went through this panel and 20% of them were active in at least one assay; those are over-represented in the sample as a whole.
Grouping by measured growth is done with the following cut points: c1: < 60%; c2: ≥ 60% and < 90%; c3: ≥ 90%

Ask: Given Cc1cc2c(c(C)c1Cl)C(=O)/C(=C/c1ccc(O)c(O)c1)O2 , name the class its growth places it in.
Result: c3

Ask: Next up: COCc1cnccc1NC1CCCCCC1
Result: c2

Ask: Input Cn1cc(-c2csc(-c3c[nH]c4ccccc34)n2)c2ccnc(Cl)c21
Result: c1

Ask: Another molecule to check: [O-][n+]1c(Cl)cc(Cl)c2ccccc21
Result: c2

Ask: Same lookup for O=C(Cn1c[n+](CC(=O)c2ccc([N+](=O)[O-])cc2)c2ccccc21)Nc1cccc2cccnc12 , please.
Result: c3

Ask: And for Oc1ccc(C2c3ccccc3Oc3ccccc32)c2cccnc12 ?
Result: c1

Ask: Another: CCCCC/C=C/C(C)=C/C1CC(C)C/C=C/CCC(O)C(OC(N)=O)CCC(C)CC(O)C(C)C(=O)O1 (stereo unspecified)
Result: c2

Ask: And COc1cc(C2C3=C(COC3=O)N(CCO)c3cc4c(cc32)CCC4)cc(OC)c1OC (stereo unspecified) ?
Result: c1

====

tested on: A549/ATCC NSCLC; assay: NCI-60 one-dose screen, 48 h; conditions: 10 µM unless noted
This is part of a sample that, as a whole, favours compounds with a hit. Of some 83,000 tested, about 20% had one in any assay. Active and inactive are the calls of the source. Rule for the calls: active = growth percent below 10; inactive = the rest.
Bench note: report the call from 1 (active), 0 (inactive)

Ask: Look up the recorded call for COc1cc(/C=C/c2cc(O)c(C(C)=O)c(O)c2)cc2c1O[C@]1(C)CC[C@@H](O)C(C)(C)[C@H]1C2 in this test.
Result: 0

Ask: Then O=C(/C=C/c1c(-c2ccc(Cl)cc2)nn(-c2ccccc2)c1C(F)(F)F)c1ccc(Cl)cc1 ?
Result: 0

Ask: And then CCN(Cc1ccccc1)c1ccc(C=O)cc1 , what is it?
Result: 0

Ask: How about this molecule: O=C1c2c(c3c4cccc(F)c4[nH]c3c3ccc4ccccc4c23)C(=O)N1O
Result: 0

Ask: Also need N/C(=N\C(N)=N\c1nc2ccccc2s1)c1ccnc(Br)c1 , thanks.
Result: 0

Ask: Entry to check: O=C1c2ccccc2CCC12OC2c1cn(-c2ccccc2)nc1-c1ccc(Cl)cc1 (centres undefined)
Result: 0

Ask: Follow-up entry: CC1=C(C(=O)/C=C/c2ccc(N(C)C)cc2)C(c2ccccc2)NC(=S)N1 (centres undefined)
Result: 0

Ask: Lookup COc1ccc(-c2nc3sccn3c2/C=C/C(=O)c2ccc3c(c2)OCO3)cc1
Result: 0

Ask: Next: N#CC1C(C#N)C(C(=O)c2ccc(Br)cc2)N2c3ccccc3C=CC12 (centres undefined)
Result: 0

Ask: // same read-out, input: COc1cc2c3c(c4c5ccccc5[nH]c4c2c(OC)c1OC)C(=O)N(CCN1CCOCC1)C3=O
Result: 0

Ask: How about this molecule: CCOC(=O)CCN(CC(C)C)C(=S)Nc1ccccc1
Result: 0

Ask: # repeat for Cc1ccc(/C=N/NC(=O)CSc2nc3ccccc3c(=O)n2Cc2ccc(S(N)(=O)=O)cc2)cc1
Result: 0

Ask: Would you mind doing CCOC(=O)c1cc(C#N)n2ccc3ccccc3c12 as well?
Result: 0

Ask: Now try OC(c1cccc(C(F)(F)F)c1)c1cnccc1NC1CCCCC1 (centres undefined) .
Result: 0

Ask: Now the molecule Cc1ccccc1NS(=O)(=O)c1cccc(C(=O)Nc2ccc(Br)cc2)c1
Result: 0

Ask: And the next one, O=C(/C=C(/C=C/c1coc2ccccc12)OB(F)F)/C=C/c1coc2ccccc12 ?
Result: 0

Ask: Try this molecule next: CC(C)(C)[Si](C)(C)OC1[C@@H](O[Si](C)(C)C(C)(C)C)[C@@H](CNC(=O)NC(=O)CCl)O[C@H]1n1cnc2c(NC(=O)Nc3ccccc3)ncnc21 (some centres undefined)
Result: 1

Ask: Could you do the same for CCOC(=O)[C@@H](C)C[C@H](Cc1ccccc1)NC(=O)c1csc([C@@H](C[C@H](C(C)C)N(C)C(=O)[C@@H](NC(=O)[C@H]2C[C@H](O[Si](C)(C)C(C)(C)C)CCN2C)C(C)C)OC(C)=O)n1 , please?
Result: 1

Ask: Do the same for CCCCCN1C=C/C(=C\C(=O)N2CCCc3ccccc32)c2ccccc21 please
Result: 0

====

test system: A549/ATCC NSCLC; test: NCI-60 one-dose screen, 48 h (100 = growth as untreated, 0 = no growth, -100 = all killed); conditions: 10 µM unless noted
The panel holds about 83,000 compounds, 20% with a hit somewhere; the sample as a whole holds those more often.
readoutType: growth (%)
Field format: number, assumed %, no unit text.

Ask: Requested read-out: growth. Entry: COc1ccc2[nH]c(O)c(/C=c3/cc4c(c(-c5ccc(F)cc5)n3)=Nc3ccccc3-4)c2c1
Result: 75.8

Ask: Repeat with COc1cc(C2C3=C(COC3=O)N(CCO)c3cc4c(cc32)CCC4)cc(OC)c1OC (centres undefined)
Result: 28.9

Ask: Next up: COc1ccc(NC(=O)c2cc(NCc3cc(O)ccc3O)ccc2O)cc1
Result: 78.7

Ask: Likewise for COc1ccc(/C=C/c2nc(Nc3cccc(NC(C)=O)c3)c3ccccc3n2)cc1 ?
Result: 55.4

Ask: Same thing, different molecule: Cn1c(N2NC(=O)C(N=Nc3ccc(S(N)(=O)=O)cc3)C2=O)nc(-c2ccco2)c(C#N)c1=O (centres undefined)
Result: 109

Ask: Subsequent entry: O=Cc1ccc(-c2cn3ccnc3c(-c3ccc4ncn(Cc5ccccc5)c4c3)n2)cc1
Result: 103

Ask: Could you do the same for Nc1nc(Nc2ccccc2SSc2ccccc2Nc2nc(N)nc(-c3ccc(C(F)(F)F)cc3)n2)nc(-c2ccc(C(F)(F)F)cc2)n1 , please?
Result: 5.2

Ask: Input Cc1ccc(-n2nc3c(c(C#N)c2=O)CC(c2ccccc2[N+](=O)[O-])C([N+](=O)[O-])=C3O)cc1 (centres undefined)
Result: 90.1

Ask: What do you have for CCCCOc1ccc(/C=N/Nc2cc(C)nc3ccc(Br)cc23)cc1 ?
Result: 34.5

====

tested on: OVCAR-3 ovarian; assay: NCI-60 one-dose screen, 48 h (100 = growth as untreated, 0 = no growth, -100 = all killed); settings: 10 µM unless noted
This is part of a sample that, as a whole, favours compounds with a hit. Of some 83,000 tested, about 20% had one in any assay. Active and inactive are the calls of the source. How the source made its calls: active means growth percent below 10; inactive means the rest.
Please respond with reported growth for every item in the list.

Ask: Look up growth for this compound: COc1cccc(C(=O)NNc2nc(Cl)nc(N3CCN(C(c4ccccc4)c4ccccc4)CC3)n2)c1
Result: 10.5% (inactive)

Ask: Another: NC1[C@H](c2c[nH]c3ccccc23)c2c([nH]c3ccccc23)[C@H]1c1c[nH]c2ccccc12 (stereo partly drawn)
Result: 78.2% (inactive)

Ask: What do you have for C/C(=N\NC(=O)CSc1nc2ccccc2c(=O)n1Cc1ccc(S(N)(=O)=O)cc1)c1ccc(F)cc1 ?
Result: 115% (inactive)

====

tested on: DU-145 prostate; experiment: NCI-60 one-dose screen, 48 h (100 = growth as untreated, 0 = no growth, -100 = all killed); details: 10 µM unless noted
This is part of a sample that, as a whole, favours compounds with a hit. Of some 83,000 tested, about 20% had one in any assay.
readoutType: growth (%)
Your answer is read as %, so omit the unit and give the number.

Ask: What measured growth goes with O=C(NNc1nc2c(F)cccc2n2cccc12)c1cnccn1 ?
Result: 26.2

Ask: Please answer likewise for COc1ccc(C(=O)CSc2nc(-c3cc(OC)ccc3OC)cc(-c3ccc(Cl)cc3)c2C#N)cc1
Result: 65.9

Ask: What about this compound? O=C1Nc2cc(Cl)ccc2/C1=C\c1c(-c2ccc(F)cc2)nc2ccccn12
Result: -17.9

Ask: Same lookup for O=C1/C=C/[C@@H](O)[C@@H]2C[C@@H](O)C[C@H]2/C=C/CCC[C@H](CCc2cccc3ccccc23)O1 , please.
Result: 19

Ask: How about this compound: CSc1nc2sc3cccc(Cl)c3n2c(=N)c1C#N
Result: 105

Ask: Can you handle CC(C)N1C(=O)/C(=C2\SC(=S)N(C(C)C)C2=O)SC1=S next?
Result: 93.6

Ask: // same read-out, input: O=C(CCN1CCCC1)Nc1ccc2c(NCc3ccccc3)c3ccccc3nc2c1
Result: -25

Ask: Thanks! And O=C(c1nc2ccccc2[nH]1)C1C(c2ccc(Br)cc2)C2CC3CCCC[C@H]3N2[C@@]12C(=O)Nc1cc(Cl)ccc12 (stereo not given in full) ?
Result: 52

Ask: And Cn1cc(CC2CC(=O)N(c3ccccc3)C2=O)sc1=NC(=O)c1ccccc1 (stereo not given) ?
Result: 103

Ask: Now consider CCCCN1C=CCN(CCCC)C1 .
Result: 71.8
